# TEST TARGET: human Somatostatin 4 receptor (SSTR4) (Homo sapiens (Human))
# Sequence (P31391 whole entry): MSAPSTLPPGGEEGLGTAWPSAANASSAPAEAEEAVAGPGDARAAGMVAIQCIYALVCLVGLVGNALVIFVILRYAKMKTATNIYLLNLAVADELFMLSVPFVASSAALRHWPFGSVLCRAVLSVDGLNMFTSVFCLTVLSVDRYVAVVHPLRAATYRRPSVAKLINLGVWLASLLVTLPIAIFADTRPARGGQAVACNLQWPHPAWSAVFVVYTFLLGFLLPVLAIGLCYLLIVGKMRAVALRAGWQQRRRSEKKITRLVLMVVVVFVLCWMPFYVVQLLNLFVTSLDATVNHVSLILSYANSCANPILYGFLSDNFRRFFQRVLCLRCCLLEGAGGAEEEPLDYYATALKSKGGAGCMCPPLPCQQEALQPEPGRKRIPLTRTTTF
# ASSAY PROTOCOL: cAMP assay with human somatostatin 4 receptor (hSSTR4 expressing H4 cells)
# Format: cell-based
# EXPERIMENTAL SETUP: cAMP assay, read-out: SSTR4 agonism EC50
MEASURED QUANTITY: EC50
Number first, unit second.

# annotated cases, reported EC50 shown
- COMPOUND STRUCTURE: "CC(C)(COc1cnccc1C1CC1)NC(=O)[C@H]1[C@@H]2CNC[C@@H]21"
  EC50: "0.0163 µM"
- COMPOUND STRUCTURE: "Cc1ccccc1OCC(C)(C)NC(=O)[C@H]1[C@@H]2CN(C(C)C)C[C@@H]21"
  EC50: "0.362 µM"
- COMPOUND STRUCTURE: "CC(C)(NC(=O)[C@H]1[C@@H]2CNC[C@@H]21)C1CCCCC1"
  EC50: "0.435 µM"

Shift focus to the following entry.
Please report the recorded EC50 for CC(C)(NC(=O)[C@H]1[C@@H]2CNC[C@@H]21)c1ncc2ccncn12 .
0.749 µM

---

# TEST TARGET: human Somatostatin 4 receptor (SSTR4) (Homo sapiens (Human))
# ASSAY PROTOCOL: cAMP assay with human somatostatin 4 receptor (hSSTR4 expressing H4 cells)
# Format: cell-based
# EXPERIMENTAL SETUP: cAMP assay, read-out: SSTR4 agonism EC50
MEASURED QUANTITY: EC50 (nM)
Give the value in nM but do not write nM after it.

- COMPOUND: "CC(C)(COc1cccn2ccnc12)NC(=O)[C@H]1[C@@H]2CNC[C@@H]21"
  READOUT UNIT: "nM"
  EC50: 1090
- COMPOUND: "CC(C)(NC(=O)[C@H]1[C@@H]2CNC[C@@H]21)C1COc2ccccc21 (single isomer, unassigned) [Example 175]"
  READOUT UNIT: "nM"
  EC50: 1000
- COMPOUND: "Cc1ccncc1OCC(C)(C)NC(=O)[C@H]1[C@@H]2CNC[C@@H]21"
  READOUT UNIT: "nM"
  EC50: 27.8

Shift focus to the following entry.
Please report the recorded EC50 for Cc1nc2ccccn2c1C(C)(C)NC(=O)[C@H]1[C@@H]2CNC[C@@H]21 .
13.3

---

# TEST TARGET: UniProtKB P31391
# ASSAY PROTOCOL: cAMP assay with human somatostatin 4 receptor (hSSTR4 expressing H4 cells)
# Type: cell-based
# EXPERIMENTAL SETUP: SSTR4 agonism EC50, cAMP assay
pEC50: −log10 of the molar value.
Label met for high-side pEC50 (at or above 9) and not met for low-side pEC50 (below it).

# count of solved cases: 3
- COMPOUND: "Cc1cccn2c(C(C)(C)NC(=O)[C@H]3[C@@H]4CNC[C@@H]43)ncc12.Cl [Example 126]"
  ASSIGNED LABEL: "met"
- COMPOUND: "CC(C)(COc1cnccc1C(F)(F)F)NC(=O)[C@H]1[C@@H]2CNC[C@@H]21 [Example 63]"
  ASSIGNED LABEL: "not met"
- COMPOUND: "CC(C)(NC(=O)[C@H]1[C@@H]2CNC[C@@H]21)c1nccc2ccccc12.Cl [Example 24]"
  ASSIGNED LABEL: "met"

Next:
Hi, just wondering whether Cc1cccnc1C(C)(C)NC(=O)[C@H]1[C@@H]2CNC[C@@H]21.Cl.Cl [Example 25] shows pEC50 of 9 or higher.
not met
